tested on: CAKI-1 renal; assay: NCI-60 one-dose screen, 48 h; settings: 10 µM unless noted
Compounds without any hit were thinned out: in the full panel of roughly 83,000, 20% have a hit. Activity calls are given as the source filed them. Rule for the calls: active = growth percent below 10; inactive = the rest.
Possible outcomes: T (active), F (inactive)

molecule | target-entity | class-assignment
COc1ccc(NC(=O)[C@@H]2C[C@H]2c2ccccc2)c(C(N)=O)c1 | CAKI-1 renal | F
CCOC(=O)c1cnc2c(C)cc(C)cc2c1NCCCN(C)C | CAKI-1 renal | T
COc1ccc(C(=O)COc2cccc(/C=C3\CSc4ccc(Cl)cc4C3=O)c2)cc1 | CAKI-1 renal | F
BrC1CC(Br)c2c1c1c(c3c2C(Br)CC3Br)C(Br)CC1Br (stereo not given) | CAKI-1 renal | F
O=C1CSC(c2ccccc2Cl)N1c1nnc(Cn2nnc3ccccc32)o1 (stereo not given) | CAKI-1 renal | F

----------
tested on: MDA-MB-435 melanoma; experiment: NCI-60 one-dose screen, 48 h; settings: 10 µM unless noted
About 83,000 compounds went through this panel and 20% of them were active in at least one assay; those are over-represented in the sample as a whole. Calls of active or inactive are those of the source. The calls were made as follows: active = growth percent below 10; inactive = the rest.
Possible outcomes: active, inactive

compound | target-entity | class-assignment
O=C1/C(=C\c2coc3ccccc3c2=O)c2ccccc2N1c1c(Cl)cccc1Cl | MDA-MB-435 melanoma | inactive
CCOc1cc(CCNS(=O)(=O)c2ccc(C)cc2)c(C(C)=O)cc1OCC | MDA-MB-435 melanoma | inactive
CCOC(=O)C1C(=O)NC(C(=O)OCC)(C(=O)OCC)C1CC (stereo not given) | MDA-MB-435 melanoma | inactive
C=C1CC[C@@H]2[C@](C)(COC(C)=O)[C@H](OC(C)=O)CC[C@@]2(C)[C@@H]1CC(NCc1ccccc1)C1=CCOC1=O (stereo not given in full) | MDA-MB-435 melanoma | inactive
CCCCCc1c(C)[nH]c(/C=C2\N=C(c3ccc[nH]3)C=C2Oc2ccc(Cl)cc2)c1C | MDA-MB-435 melanoma | active
Oc1ccc(/C=N/Nc2nc3ccccc3s2)c(O)c1 | MDA-MB-435 melanoma | inactive
CC(=O)O[C@H]1CC[C@@]2(C)C(=CC[C@@H]3[C@@H]2CC[C@]2(C)C(c4cccnc4)=CC[C@@H]32)C1 | MDA-MB-435 melanoma | inactive
COc1ccc(N2CCN(CC(=O)N3CCN(c4nnc(-c5ccccc5)c(-c5ccccc5)n4)CC3)CC2)cc1 | MDA-MB-435 melanoma | inactive
O=C1/C(=C/c2ccc(F)cc2)Cc2ccccc21 | MDA-MB-435 melanoma | inactive
CC1C(=O)NC2=Nc3ccccc3C(=O)NN21 (stereo not given) | MDA-MB-435 melanoma | inactive

----------
tested on: 786-0 renal; experiment: NCI-60 one-dose screen, 48 h; settings: 10 µM unless noted
This is part of a sample that, as a whole, favours compounds with a hit. Of some 83,000 tested, about 20% had one in any assay. Activity calls are given as the source filed them. Rule for the calls: active = growth percent below 10; inactive = the rest.
Possible outcomes: y = active, n = inactive

molecule | class-assignment
CN[C@@H]1C(OC2[C@H](O[C@H]3[C@H](O)[C@@H](O)[C@H](N=C(N)N)[C@@H](O)[C@@H]3N=C(N)N)OC(C)[C@]2(O)CO)OC(CO)C(O)C1O (stereo not given in full) | n
CC[C@@H](c1ccc(O)c(O)c1)[C@@H](CC)c1ccc(O)c(O)c1 | n
Cc1nn(-c2ccccc2)c2nc(N)c(C3=NCCO3)nc12 | n
COc1cc(Cl)cc(-c2nn(-c3cccc(NC(=O)c4cc(C(F)(F)F)cc(C(F)(F)F)c4)c3)cc2-c2ccncc2)c1 | n
CC(C)OP(=O)(OC(C)C)c1ncc(-c2ccc(C(F)(F)F)cc2)c(NC2CCCCCC2)n1 | y
C/C(=C\CCc1ccoc1)CC/C=C(\C)CCCN1CCSCC1 | n
O=C(/C=C/c1cccc(Nc2ccnc3cc(Cl)ccc23)c1)c1ccc(Cl)cc1 | n
[N-]=[N+]=NCc1cccc(/C(O)=C/C(=O)C(=O)O)c1 | n
CCOC(=O)CCN(c1c(Cl)ssc1=O)C(C)C | n
CCOC(=O)Nc1cc(-c2ccc(C)c(NS(C)(=O)=O)c2)nn2c(C)nnc12 | n
O=C1C2C(C(=O)N1CC[Se][Se]CCN1C(=O)C3C(C1=O)[C@H]1C=C[C@@H]3C1)[C@H]1C=C[C@@H]2C1 (stereo not given in full) | y
O=C1Nc2ccc(Cl)cc2[C@@](C#CC2CC2)(C(F)(F)F)O1 | n
CCCCCc1c(C)[nH]c(/C=C2\N=C(c3ccc[nH]3)C=C2OCc2ccccc2)c1C | y
NS(=O)(=O)c1ccc(-n2ncc3c(SCc4ccccc4)ncnc32)cc1 | n
CCOC1Oc2ccccc2C(=O)/C1=N/c1nccs1 (stereo not given) | n
O=C1c2cccc(NCCN=Cc3ccccc3O)c2C(=O)c2c(NCCN=Cc3ccccc3O)cccc21 | n
COc1ccc(/C=C/C(=O)c2cccc(NS(C)(=O)=O)c2)cc1 | n
Cc1cc(C)c(C(=O)c2cccs2)c(C)c1 | n
COc1ccccc1NC(=O)c1sc2nc3c(cc2c1N)C(=O)CCC3 | n
O=C(N/N=C/c1cccc(O)c1O)c1ccccc1 | n

Every entry's value here was drawn from PubChem BioAssay (NCI).
